- Test system: Plasmodium falciparum FCR-3 strain
- Test details: Drug sensitive-Plasmodium falciparum growth inhibition screening test
- Assay type: cell-based
- Test conditions: chemotherapy index = EC50 mouse FM3A cells / EC50 drug sensitive P. falciparum
Measurement kind: Selective toxicity
Keep it simple and answer with nothing but the number.

Data request, read-out Selective toxicity, for CCn1c(=O)/c(=C/C=C2\Sc3ccc4ccccc4c3N2C)s/c1=C\c1sc2ccc3ccccc3c2[n+]1CC 8

Data request, read-out Selective toxicity, for C=C[C@H]1C[N@@]2CC[C@H]1C[C@H]2[C@H](O)c1ccnc2ccc(OC)cc12 [quinine, reference compound] 910

Data request, read-out Selective toxicity, for CCN(CC)CCCC(C)Nc1ccnc2cc(Cl)ccc12 (centres unmarked) [chloroquine, reference compound] 1780

Data request, read-out Selective toxicity, for CCn1c(=O)/c(=C/C=C2\Sc3ccc4ccccc4c3N2C)s/c1=C\c1scc(C)[n+]1CC 20
